# assay method text: Tmax in juvenile fasted Sprague-Dawley rat at 30 mg/kg, po administered as solution in bovine milk by HPLC-tandem mass spectrometry
# Format: ADME, organism-based
# Design: dose 30 mg/kg, route oral
# condition summary: in vivo
The compounds listed here are annotated with their Tmax.
property: Tmax (h)

| compound | unit name | readout number |
| --- | --- | --- |
| CCOC(=O)C1=C[C@@H](OC(CC)CC)[C@H](NC(C)=O)[C@@H](N)C1 | h | 1 |
| CCC(CC)O[C@@H]1C=C(C(=O)O)C[C@H](N)[C@H]1NC(C)=O [OSELTAMIVIR CARBOXYLATE] | h | 5 |

---

# assay method text: AUC(0 to infinity) in adult fed Sprague-Dawley rat at 30 mg/kg, po administered as 125 mM aqueous Gly-Sar solution by HPLC-tandem mass spectrometry
# Assay type: ADME, organism-based
# Parameters: time infinity, dose 30 mg/kg, route oral
# condition summary: plasma
property: AUC(0-inf)

| compound | property | result |
| --- | --- | --- |
| CCC(CC)O[C@@H]1C=C(C(=O)O)C[C@H](N)[C@H]1NC(C)=O [OSELTAMIVIR CARBOXYLATE] | AUC(0-inf) | 4870 ng·h/mL |
| CCOC(=O)C1=C[C@@H](OC(CC)CC)[C@H](NC(C)=O)[C@@H](N)C1 [OSELTAMIVIR] | AUC(0-inf) | 2840 ng·h/mL |

---

# maps each entry to its CL renal
# assay method text: Renal clearance in healthy human at 150 mg, po administered as single dose by HPLC-tandem mass spectrometry under fed conditions
# Type: ADME, organism-based, Kidney
# condition summary: in vivo
property: CL renal (mL/min)

| compound | property | unit name | readout number |
| --- | --- | --- | --- |
| CCC(CC)O[C@@H]1C=C(C(=O)O)C[C@H](N)[C@H]1NC(C)=O [OSELTAMIVIR CARBOXYLATE] | CL renal | mL/min | 218 |
| CCOC(=O)C1=C[C@@H](OC(CC)CC)[C@H](NC(C)=O)[C@@H](N)C1 [OSELTAMIVIR] | CL renal | mL/min | 385 |

---

# assay method text: AUC(0 to 5 hrs) in juvenile breast-fed Sprague-Dawley rat at 30 mg/kg, po administered as water solution by HPLC-tandem mass spectrometry
# Format: ADME, organism-based
# Parameters: time < 5 hr, dose 30 mg/kg, route oral
# condition summary: plasma
property: AUC(0-t) at 5 h

| molecule | result |
| --- | --- |
| CCC(CC)O[C@@H]1C=C(C(=O)O)C[C@H](N)[C@H]1NC(C)=O [OSELTAMIVIR CARBOXYLATE] | 5070 ng·h/mL |
| CCOC(=O)C1=C[C@@H](OC(CC)CC)[C@H](NC(C)=O)[C@@H](N)C1 | 20300 ng·h/mL |

---

# assay method text: AUC(0 to 24 hrs) in adult fed Sprague-Dawley rat at 30 mg/kg, po administered as 125 mM aqueous Gly-Sar solution by HPLC-tandem mass spectrometry
# Assay type: ADME, organism-based
# Set-up: time < 24 hr, dose 30 mg/kg, route oral
# condition summary: plasma
Reported AUC(0-t) at 24 h values are given for each entry in this list.

| molecule | AUC(0-t) at 24 h (ng·h/mL) |
| --- | --- |
| CCOC(=O)C1=C[C@@H](OC(CC)CC)[C@H](NC(C)=O)[C@@H](N)C1 | 2830 |
| CCC(CC)O[C@@H]1C=C(C(=O)O)C[C@H](N)[C@H]1NC(C)=O [OSELTAMIVIR CARBOXYLATE] | 4860 |

---

# assay method text: Drug excretion in healthy human urine assessed as unchanged drug level at 150 mg, po administered as single dose by HPLC-tandem mass spectrometry under fed conditions
# Type: ADME, organism-based
# condition summary: read-out: Drug excretion
property: dose excreted (%)

| compound | readout number |
| --- | --- |
| CCC(CC)O[C@@H]1C=C(C(=O)O)C[C@H](N)[C@H]1NC(C)=O [OSELTAMIVIR CARBOXYLATE] | 55.5 |
| CCOC(=O)C1=C[C@@H](OC(CC)CC)[C@H](NC(C)=O)[C@@H](N)C1 | 4.32 |

---

The compounds listed here are annotated with their CL renal.
# assay method text: Renal clearance in healthy human at 150 mg, po administered as single dose by HPLC-tandem mass spectrometry under fasting conditions
# Type: ADME, organism-based, Kidney
# condition summary: in vivo
property: CL renal (mL/min)

| compound | readout number |
| --- | --- |
| CCOC(=O)C1=C[C@@H](OC(CC)CC)[C@H](NC(C)=O)[C@@H](N)C1 | 340 |
| CCC(CC)O[C@@H]1C=C(C(=O)O)C[C@H](N)[C@H]1NC(C)=O [OSELTAMIVIR CARBOXYLATE] | 223 |

---

# assay method text: Cmax in adult fed Sprague-Dawley rat at 30 mg/kg, po administered as water solution by HPLC-tandem mass spectrometry
# Format: ADME, organism-based
# Parameters: dose 30 mg/kg, route oral
# condition summary: in vivo

| compound | Cmax / ng/mL |
| --- | --- |
| CCC(CC)O[C@@H]1C=C(C(=O)O)C[C@H](N)[C@H]1NC(C)=O [OSELTAMIVIR CARBOXYLATE] | 1110 |
| CCOC(=O)C1=C[C@@H](OC(CC)CC)[C@H](NC(C)=O)[C@@H](N)C1 | 1270 |

---

# assay method text: Cmax in juvenile fasted Sprague-Dawley rat at 30 mg/kg, po administered as solution in bovine milk by HPLC-tandem mass spectrometry
# Assay type: ADME, organism-based
# Design: dose 30 mg/kg, route oral
# condition summary: in vivo

| molecule | Cmax (ng/mL) |
| --- | --- |
| CCC(CC)O[C@@H]1C=C(C(=O)O)C[C@H](N)[C@H]1NC(C)=O [OSELTAMIVIR CARBOXYLATE] | 2460 |
| CCOC(=O)C1=C[C@@H](OC(CC)CC)[C@H](NC(C)=O)[C@@H](N)C1 | 7990 |

---

# assay method text: Tmax in adult fed Sprague-Dawley rat at 30 mg/kg, po administered as 125 mM aqueous Gly-Sar solution by HPLC-tandem mass spectrometry
# Assay type: ADME, organism-based
# Design: dose 30 mg/kg, route oral
# condition summary: in vivo
property: Tmax

| compound | property | result |
| --- | --- | --- |
| CCC(CC)O[C@@H]1C=C(C(=O)O)C[C@H](N)[C@H]1NC(C)=O [OSELTAMIVIR CARBOXYLATE] | Tmax | 1.42 h |
| CCOC(=O)C1=C[C@@H](OC(CC)CC)[C@H](NC(C)=O)[C@@H](N)C1 | Tmax | 0.66 h |

---

# assay method text: Tmax in juvenile fasted Sprague-Dawley rat at 30 mg/kg, po administered as 125 mM aqueous Gly-Sar solution by HPLC-tandem mass spectrometry
# Format: ADME, organism-based
# Set-up: dose 30 mg/kg, route oral
# condition summary: in vivo
Each record here notes measured Tmax.
property: Tmax

| molecule | property | result |
| --- | --- | --- |
| CCC(CC)O[C@@H]1C=C(C(=O)O)C[C@H](N)[C@H]1NC(C)=O [OSELTAMIVIR CARBOXYLATE] | Tmax | 2 h |
| CCOC(=O)C1=C[C@@H](OC(CC)CC)[C@H](NC(C)=O)[C@@H](N)C1 [OSELTAMIVIR] | Tmax | 0.5 h |

---

# assay method text: Tmax in adult fed Sprague-Dawley rat at 30 mg/kg, po administered as solution in bovine milk by HPLC-tandem mass spectrometry
# Assay type: ADME, organism-based
# Set-up: dose 30 mg/kg, route oral
# condition summary: in vivo

| molecule | unit name | Tmax |
| --- | --- | --- |
| CCOC(=O)C1=C[C@@H](OC(CC)CC)[C@H](NC(C)=O)[C@@H](N)C1 | min | 24.6 |
| CCC(CC)O[C@@H]1C=C(C(=O)O)C[C@H](N)[C@H]1NC(C)=O [OSELTAMIVIR CARBOXYLATE] | min | 45 |

---

# assay method text: Tmax in adult fasted Sprague-Dawley rat at 30 mg/kg, po administered as water solution by HPLC-tandem mass spectrometry
# Assay type: ADME, organism-based
# Set-up: dose 30 mg/kg, route oral
# condition summary: in vivo
List of Tmax values.
property: Tmax (min)

| molecule | readout number |
| --- | --- |
| CCC(CC)O[C@@H]1C=C(C(=O)O)C[C@H](N)[C@H]1NC(C)=O [OSELTAMIVIR CARBOXYLATE] | 64.8 |
| CCOC(=O)C1=C[C@@H](OC(CC)CC)[C@H](NC(C)=O)[C@@H](N)C1 [OSELTAMIVIR] | 49.8 |
